# Assay explanation: Toxicokinetics of infigratinib in juvenile rat plasma after oral gavage
# Type: in vivo, Crl:WI(Han) rat
# Run conditions: female, Crl:WI(Han), rat, plasma, po, 0.3 mg/kg/day, T1/2, Female rats, 0.3 mg/kg/day oral, PND 23
Parameter: half-life (h)
Numbers only, in h.

Entry "CCN1CCN(c2ccc(Nc3cc(N(C)C(=O)Nc4c(Cl)c(OC)cc(OC)c4Cl)ncn3)cc2)CC1" : reported half-life = ?
4.53

====

# Assay explanation: Toxicokinetics of infigratinib in juvenile rat plasma after oral gavage
# Type: in vivo, Crl:WI(Han) rat
# Run conditions: male, Crl:WI(Han), rat, plasma, po, 0.3 mg/kg/day, AUC(0-t), Male rats, 0.3 mg/kg/day oral, PND 23
Parameter: AUC(0-t) (ng·h/mL)
Give bare numbers, in ng·h/mL.

Entry "CCN1CCN(c2ccc(Nc3cc(N(C)C(=O)Nc4c(Cl)c(OC)cc(OC)c4Cl)ncn3)cc2)CC1" : reported AUC(0-t) = ?
21.5

====

# Assay explanation: Toxicokinetics of infigratinib in juvenile rat plasma after oral gavage
# Type: in vivo, Crl:WI(Han) rat
# Run conditions: male, Crl:WI(Han), rat, plasma, po, 1 mg/kg/day, Cmax, Male rats, 1.0 mg/kg/day oral, PND 23
Parameter: Cmax (ng/mL)
Answers are plain numbers, in ng/mL.

Entry CCN1CCN(c2ccc(Nc3cc(N(C)C(=O)Nc4c(Cl)c(OC)cc(OC)c4Cl)ncn3)cc2)CC1 [infigratinib] : reported Cmax = ?
11.2

====

# Assay explanation: Toxicokinetics of infigratinib in juvenile rat plasma after oral gavage
# Format: in vivo, Crl:WI(Han) rat
# Run conditions: male, Crl:WI(Han), rat, plasma, po, 0.1 mg/kg/day, AUC(0-t), Male rats, 0.1 mg/kg/day oral, PND 12
Parameter: AUC(0-t) (ng·h/mL)
One number for each entry, in ng·h/mL.

Entry "CCN1CCN(c2ccc(Nc3cc(N(C)C(=O)Nc4c(Cl)c(OC)cc(OC)c4Cl)ncn3)cc2)CC1" : reported AUC(0-t) = ?
39.4

====

# Assay explanation: Toxicokinetics of infigratinib in juvenile rat plasma after oral gavage
# Format: in vivo, Crl:WI(Han) rat
# Run conditions: female, Crl:WI(Han), rat, plasma, po, 0.1 mg/kg/day, Tmax, Female rats, 0.1 mg/kg/day oral, PND 7
Parameter: Tmax (h)
Answers are plain numbers, in h.

Entry CCN1CCN(c2ccc(Nc3cc(N(C)C(=O)Nc4c(Cl)c(OC)cc(OC)c4Cl)ncn3)cc2)CC1 [infigratinib] : reported Tmax = ?
3

====

# Assay explanation: Toxicokinetics of infigratinib in juvenile rat plasma after oral gavage
# Type: in vivo, Crl:WI(Han) rat
# Run conditions: male, Crl:WI(Han), rat, plasma, po, 1 mg/kg/day, T1/2, Male rats, 1.0 mg/kg/day oral, PND 23
Parameter: half-life (h)
One number for each entry, in h.

Entry CCN1CCN(c2ccc(Nc3cc(N(C)C(=O)Nc4c(Cl)c(OC)cc(OC)c4Cl)ncn3)cc2)CC1 [infigratinib] : reported half-life = ?
3.64

====

# Assay explanation: Toxicokinetics of infigratinib in juvenile rat plasma after oral gavage
# Assay type: in vivo, Crl:WI(Han) rat
# Run conditions: female, Crl:WI(Han), rat, plasma, po, 0.1 mg/kg/day, Cmax, Female rats, 0.1 mg/kg/day oral, PND 35
Parameter: Cmax
Answers without a unit are incomplete; give the number and then its unit.

Entry "CCN1CCN(c2ccc(Nc3cc(N(C)C(=O)Nc4c(Cl)c(OC)cc(OC)c4Cl)ncn3)cc2)CC1" : reported Cmax = ?
0.3 ng/mL

====

# Assay explanation: Toxicokinetics of infigratinib in juvenile rat plasma after oral gavage
# Format: in vivo, Crl:WI(Han) rat
# Run conditions: female, Crl:WI(Han), rat, plasma, po, 1 mg/kg/day, Tmax, Female rats, 1.0 mg/kg/day oral, PND 23
Parameter: Tmax (h)
Give bare numbers, in h.

Entry CCN1CCN(c2ccc(Nc3cc(N(C)C(=O)Nc4c(Cl)c(OC)cc(OC)c4Cl)ncn3)cc2)CC1 [infigratinib] : reported Tmax = ?
1

====

# Assay explanation: Toxicokinetics of infigratinib in juvenile rat plasma after oral gavage
# Assay type: in vivo, Crl:WI(Han) rat
# Run conditions: female, Crl:WI(Han), rat, plasma, po, 0.3 mg/kg/day, AUC(0-t), Female rats, 0.3 mg/kg/day oral, PND 35
Parameter: AUC(0-t) (ng·h/mL)
Answers are plain numbers, in ng·h/mL.

Entry CCN1CCN(c2ccc(Nc3cc(N(C)C(=O)Nc4c(Cl)c(OC)cc(OC)c4Cl)ncn3)cc2)CC1 [infigratinib] : reported AUC(0-t) = ?
4.54

====

# Assay explanation: Toxicokinetics of infigratinib in juvenile rat plasma after oral gavage
# Assay type: in vivo, Crl:WI(Han) rat
# Run conditions: male, Crl:WI(Han), rat, plasma, po, 0.3 mg/kg/day, T1/2, Male rats, 0.3 mg/kg/day oral, PND 12
Parameter: half-life
Answers without a unit are incomplete; give the number and then its unit.

Entry "CCN1CCN(c2ccc(Nc3cc(N(C)C(=O)Nc4c(Cl)c(OC)cc(OC)c4Cl)ncn3)cc2)CC1" : reported half-life = ?
3.75 h

====

# Assay explanation: Toxicokinetics of infigratinib in juvenile rat plasma after oral gavage
# Format: in vivo, Crl:WI(Han) rat
# Run conditions: female, Crl:WI(Han), rat, plasma, po, 0.1 mg/kg/day, AUC(0-t), Female rats, 0.1 mg/kg/day oral, PND 12
Parameter: AUC(0-t)

Entry "CCN1CCN(c2ccc(Nc3cc(N(C)C(=O)Nc4c(Cl)c(OC)cc(OC)c4Cl)ncn3)cc2)CC1" : reported AUC(0-t) = ?
40.5 ng·h/mL

====

# Assay explanation: Toxicokinetics of infigratinib in juvenile rat plasma after oral gavage
# Type: in vivo, Crl:WI(Han) rat
# Run conditions: male, Crl:WI(Han), rat, plasma, po, 0.1 mg/kg/day, Cmax, Male rats, 0.1 mg/kg/day oral, PND 7
Parameter: Cmax (ng/mL)
One number for each entry, in ng/mL.

Entry "CCN1CCN(c2ccc(Nc3cc(N(C)C(=O)Nc4c(Cl)c(OC)cc(OC)c4Cl)ncn3)cc2)CC1" : reported Cmax = ?
3.21

====

# Assay explanation: Toxicokinetics of infigratinib in juvenile rat plasma after oral gavage
# Type: in vivo, Crl:WI(Han) rat
# Run conditions: male, Crl:WI(Han), rat, plasma, po, 1 mg/kg/day, AUC(0-t), Male rats, 1.0 mg/kg/day oral, PND 23
Parameter: AUC(0-t) (ng·h/mL)
Answers are plain numbers, in ng·h/mL.

Entry "CCN1CCN(c2ccc(Nc3cc(N(C)C(=O)Nc4c(Cl)c(OC)cc(OC)c4Cl)ncn3)cc2)CC1" : reported AUC(0-t) = ?
87.2

====

# Assay explanation: Toxicokinetics of infigratinib in juvenile rat plasma after oral gavage
# Format: in vivo, Crl:WI(Han) rat
# Run conditions: male, Crl:WI(Han), rat, plasma, po, 0.1 mg/kg/day, Cmax, Male rats, 0.1 mg/kg/day oral, PND 23
Parameter: Cmax (ng/mL)
Answers are plain numbers, in ng/mL.

Entry "CCN1CCN(c2ccc(Nc3cc(N(C)C(=O)Nc4c(Cl)c(OC)cc(OC)c4Cl)ncn3)cc2)CC1" : reported Cmax = ?
0.577

====

# Assay explanation: Toxicokinetics of infigratinib in juvenile rat plasma after oral gavage
# Type: in vivo, Crl:WI(Han) rat
# Run conditions: male, Crl:WI(Han), rat, plasma, po, 0.1 mg/kg/day, Cmax, Male rats, 0.1 mg/kg/day oral, PND 12
Parameter: Cmax (ng/mL)
One number for each entry, in ng/mL.

Entry "CCN1CCN(c2ccc(Nc3cc(N(C)C(=O)Nc4c(Cl)c(OC)cc(OC)c4Cl)ncn3)cc2)CC1" : reported Cmax = ?
3.32

====

# Assay explanation: Toxicokinetics of infigratinib in juvenile rat plasma after oral gavage
# Format: in vivo, Crl:WI(Han) rat
# Run conditions: female, Crl:WI(Han), rat, plasma, po, 1 mg/kg/day, Cmax, Female rats, 1.0 mg/kg/day oral, PND 23
Parameter: Cmax (ng/mL)
Answers are plain numbers, in ng/mL.

Entry "CCN1CCN(c2ccc(Nc3cc(N(C)C(=O)Nc4c(Cl)c(OC)cc(OC)c4Cl)ncn3)cc2)CC1" : reported Cmax = ?
10.4
